- measurementDescription: Turbidimetric aqueous solubility
- Assay type: physicochemical
- conditionSummary: 37 °C, pH 7.4, aqueous buffer, kinetic from dmso stock, Turbidity aqueous solubility, Estimated precipitation range, Lower bond
experimentalReadout: solubility at 2 h (µM)

{"columns": ["molecule", "experimentalReadout", "measuredValue"],
 "data": [
  ["COC(=O)C1=C(C)NC(C)=C(C(=O)OCCN(C)Cc2ccccc2)C1c1cccc([N+](=O)[O-])c1 (stereo not shown) [Nicardipine, reference compound]", "solubility at 2 h", 3]
]}

* * *

- Tested on: rhabdomyosarcoma cell line RH4
- measurementDescription: MTS cell viability assay, rhabdomyosarcoma cell line RH4
- Format: cell-based
- conditionSummary: Rhabdomyosarcoma cell, 72 h incubation, Example 9, Table 3, read-out: IC50 values against cancer cell lines
pIC50: −log10 of the molar value.
Quick list: pIC50 per entry.
experimentalReadout: pIC50

{"columns": ["molecule", "experimentalReadout", "measuredValue"],
 "data": [
  ["CCc1c2c(nc3ccc(O)cc13)-c1cc3c(c(=O)n1C2)COC(=O)[C@]3(O)CC [SN38, 7-ethyl-10-hydroxy-camptothecin]", "pIC50", 7.83],
  ["CCc1c2c(nc3ccc(OC(=O)N4CCC(N5CCCCC5)CC4)cc13)-c1cc3c(c(=O)n1C2)COC(=O)[C@]3(O)CC", "pIC50", 4.97]
]}
